# credit: ChEMBL document CHEMBL1134956

Field: Selectivity. Provide a value for each of the compounds that follow.
# Protocol notes: Selectivity by the ratio of binding affinity of acid to the binding affinity of its ester
Keep the answer to the number alone.

The value of Selectivity measured for the compound COC(=O)CC[C@@H]1N=C(c2ccccc2F)c2cc(Cl)ccc2-n2c1cnc2C turned out to be 226

The value of Selectivity measured for the compound COC(=O)CC[C@@H]1N=C(c2ccccc2F)c2cc(Cl)ccc2-n2cc(C)nc21 turned out to be 156

The value of Selectivity measured for the compound COC(=O)CC[C@@H]1N=C(c2ccccn2)c2cc(Cl)ccc2-n2ccnc21 turned out to be 176

The value of Selectivity measured for the compound COC(=O)CC[C@@H]1N=C(c2ccccc2F)c2cc(Cl)ccc2NC1=O turned out to be 984

The value of Selectivity measured for the compound CNC1=Nc2ccc(Cl)cc2C(c2ccccc2F)=N[C@H]1CCC(=O)OC turned out to be 156

The value of Selectivity measured for the compound COC(=O)CC[C@@H]1N=C(c2ccccc2F)c2cc(Cl)ccc2-n2ccnc21 turned out to be 64

The value of Selectivity measured for the compound COC(=O)CC[C@@H]1N=C(c2ccccn2)c2cc(Cl)ccc2-n2cc(C)nc21 turned out to be 156

The value of Selectivity measured for the compound COC(=O)CC[C@@H]1N=C(c2ccccn2)c2cc(Cl)ccc2NC1=O turned out to be 46

----------
Field: pKi. Provide a value for each of the molecules that follow.
# Protocol notes: Binding affinity against rat benzodiazepine (BZD) receptor
Remember, pKi is on a log scale: it is -log10 of the molar concentration.

The value of pKi measured for the molecule CNC1=Nc2ccc(Cl)cc2C(c2ccccc2)=[N+]([O-])C1 [CHLORDIAZEPOXIDE] turned out to be 6.36

The value of pKi measured for the molecule COC(=O)CC[C@@H]1N=C(c2ccccc2F)c2cc(Cl)ccc2-n2c(C)cnc21 turned out to be 8.10

The value of pKi measured for the molecule COC(=O)CC[C@@H]1N=C(c2ccccc2F)c2cc(Cl)ccc2N=C1NCCc1ccncc1 turned out to be 6.10

The value of pKi measured for the molecule COC(=O)CC[C@@H]1N=C(c2ccccc2F)c2cc(Cl)ccc2-n2ccnc21 turned out to be 8.15

The value of pKi measured for the molecule COC(=O)CC[C@@H]1N=C(c2ccccc2F)c2cc(Cl)ccc2N=C1NCC(C)C turned out to be 5.99

The value of pKi measured for the molecule COC(=O)CC[C@@H]1N=C(c2ccccc2F)c2cc(Cl)ccc2N=C1NCc1ccccc1 turned out to be 6.06

The value of pKi measured for the molecule COC(=O)CC[C@H]1N=C(c2ccccc2F)c2cc(Cl)ccc2-n2c1cnc2C turned out to be 5.45

The value of pKi measured for the molecule COC(=O)CC[C@@H]1N=C(c2ccccc2F)c2cc(Cl)ccc2N=C1NCCc1c[nH]cn1 turned out to be 6.68

The value of pKi measured for the molecule COC(=O)CC[C@@H]1N=C(c2ccccc2F)c2cc(Cl)ccc2NC1=O turned out to be 8.15

The value of pKi measured for the molecule COC(=O)CC[C@@H]1N=C(c2ccccn2)c2cc(Cl)ccc2-n2c1nc(C)c2C turned out to be 6.89

The value of pKi measured for the molecule COC(=O)CC[C@@H]1N=C(c2ccccc2F)c2cc(Cl)ccc2N=C1NCCO turned out to be 6.52

The value of pKi measured for the molecule COC(=O)CC[C@@H]1N=C(c2ccccn2)c2cc(Cl)ccc2-n2c(C)cnc21 turned out to be 7.01
